Test system: HL-1 cells
Assay: Apoptosis of ischemic HL-1 cardiomyocytes (TUNEL assay, flow cytometer)
Type: cell-based, mouse
Conditions: 100 µM; 8 h ischemia (glucose deficient medium + hydrogen peroxide); 8h Ischemia alone 701.6, 8h Control 100
Parameter measured: Relative rate of apoptosis normalised to control [%]
Units required after the number.

Before answering, review these 3 worked examples.
compound="CCN(CC)CCCC(C)Nc1nccc(Nc2cnc3ccccc3c2)n1 (stereo not shown)" meas_value=607.8%
compound="CCN(CC)CCCC(C)Nc1nccc(Nc2ccc3[nH]ccc3c2)n1 (stereo not shown)" meas_value=319.4%
compound="CCN(CC)CCCC(C)Nc1nc(C)cc(Nc2ccc3nc(C)cc(N)c3c2)n1 (racemic) [NSC23766, reference compound]" meas_value=546.5%

Can you share its Relative rate of apoptosis normalised to control [%]? I mean this compound: CCN(CC)CCCC(C)Nc1nccc(Nc2ccc3[nH]c(C)cc3c2)n1 (stereo not shown) 511.6%

----------
Catalogue of remaining activity at 50 µM readings, one per entry.
Molecular target: Rac1 (Homo sapiens, UniProt P63000)
Construct: endogenous in cells; host or cells: human cultured smooth muscle cells, stimulated with PDGF-BB
Assay: G-LISA assay of intracellular Rac1-GTP in PDGF-BB stimulated human smooth muscle cells
Type: cell-based
Conditions: Concentration 50 µm; 4 hours incubation, then PDGF-BB 10 ng/ml; Rac1-GTP detected relative to control (100), lower = more inhibition; read-out: Rac1 inhibitory activity (% vs control)
Numbers only; they are read as %.

Which remaining activity at 50 µM value is on record for CCN(CC)CCCNc1nc(C)cc(Oc2ccc3nc(C)ccc3c2)n1 ? 94.8

For the molecule shown here, CCN(CC)CCCC(C)Nc1nc(C)cc(NCCc2c[nH]c3ccccc23)n1 (stereo not drawn) , give the reported remaining activity at 50 µM. 109

Requested field: remaining activity at 50 µM. Item: CCN(CC)CCCC(C)Nc1nccc(Nc2ccc3[nH]c(C)cc3c2)n1 (stereo not drawn) 81.1

Which remaining activity at 50 µM is listed for CCN(CC)CCCC(C)Nc1nccc(Nc2ccc3[nH]ccc3c2)n1 (stereo not drawn) ? 58.3

Bench note: what remaining activity at 50 µM did CCN(CC)CCCC(C)Nc1nc(C)cc(Nc2ccc3ncccc3c2)n1 (stereo not drawn) show? 93.8

So what's the measured remaining activity at 50 µM for this one? Cc1cc(Nc2ccc3nc(C)cc(O)c3c2)nc(NCCc2c[nH]c3ccccc23)n1 91.5

----------
Tested on: HepG2 cells
Experiment: Resazurine cytotoxicity assay (metabolic activity), HepG2
Format: cell-based, human
Conditions: Homo sapiens; HepG2, 24 h, metabolic activity; read-out: EC50
Parameter measured: EC50 (µM)
Response body: numeric value in µM, unit text excluded.

molecule="CCN(CC)CCCC(C)Nc1nccc(Nc2ccc3[nH]ccc3c2)n1 (centres unmarked)" parameter_measured=EC50 result_units=µM meas_value=33
molecule="CCN(CC)CCCC(C)Nc1nccc(Nc2cnc3ccccc3c2)n1 (centres unmarked)" parameter_measured=EC50 result_units=µM meas_value=32
molecule="COC(=O)C(CC(C)C)Nc1cc(C)nc(Nc2ccc3ncccc3c2)n1 (centres unmarked)" parameter_measured=EC50 result_units=µM meas_value=162
molecule="CCN(CC)CCCC(C)Nc1nccc(Nc2ccc3[nH]c(C)cc3c2)n1 (centres unmarked)" parameter_measured=EC50 result_units=µM meas_value=21

Could you now consider this next molecule?
Entry c1cc(NCc2ccc3[nH]ccc3c2)nc(NCc2ccc3[nH]ccc3c2)n1 : reported EC50 = ? 64
